The values you see were collected from ChEMBL document CHEMBL1641423.

Assay Remarks: Cytotoxicity against human RBC assessed induction of hemolysis at […] after 30 mins microtiter plate reader analysis
Type: cell-based
Study Conditions: erythrocyte, 0.5 h

{"Smiles Str": "CC(C)C[C@@H]1NC(=O)[C@H](CCCN)NC(=O)[C@H](C(C)C)NC(=O)[C@@H](Cc2ccc(O)cc2)NC(=O)[C@H](C)NC(=O)[C@@H](Cc2ccccc2)NC(=O)[C@H](CC(C)C)NC(=O)[C@H](CCCN)NC(=O)[C@H](C(C)C)NC(=O)[C@@H](Cc2ccc(O)cc2)NC(=O)[C@H](C)NC(=O)[C@@H](Cc2ccccc2)NC1=O", "Activity": "Non-toxic"}
{"Smiles Str": "CC(C)C[C@@H]1NC(=O)[C@H](CCCN)NC(=O)[C@H](C(C)C)NC(=O)[C@@H](Cc2ccc(O)cc2)NC(=O)[C@H](CCCNC(=N)N)NC(=O)[C@@H](Cc2ccccc2)NC(=O)[C@H](CC(C)C)NC(=O)[C@H](CCCN)NC(=O)[C@H](C(C)C)NC(=O)[C@@H](Cc2ccc(O)cc2)NC(=O)[C@H](CCCNC(=N)N)NC(=O)[C@@H](Cc2ccccc2)NC1=O", "Activity": "Non-toxic"}
{"Smiles Str": "CC(C)C[C@@H]1NC(=O)[C@H](CCCN)NC(=O)[C@H](C(C)C)NC(=O)[C@@H](Cc2ccc(O)cc2)NC(=O)[C@@H]2CCCN2C(=O)[C@@H](Cc2ccccc2)NC(=O)[C@H](CC(C)C)NC(=O)[C@H](CCCN)NC(=O)[C@H](C(C)C)NC(=O)[C@@H](Cc2ccc(O)cc2)NC(=O)[C@@H]2CCCN2C(=O)[C@@H](Cc2ccccc2)NC1=O", "Activity": "Toxic"}

* * *

Assay Remarks: Cytotoxicity against human RBC assessed induction of hemolysis at […] after 30 mins microtiter plate reader analysis
Type: cell-based
Study Conditions: erythrocyte, 0.5 h
Quantity Measured: Activity

{"Smiles Str": "CC(C)C[C@@H]1NC(=O)[C@H](CCCN)NC(=O)[C@H](C(C)C)NC(=O)[C@@H](Cc2ccc(O)cc2)NC(=O)[C@H](CO)NC(=O)[C@@H](Cc2ccccc2)NC(=O)[C@H](CC(C)C)NC(=O)[C@H](CCCN)NC(=O)[C@H](C(C)C)NC(=O)[C@@H](Cc2ccc(O)cc2)NC(=O)[C@H](CO)NC(=O)[C@@H](Cc2ccccc2)NC1=O", "Quantity Measured": "Activity", "Test Value": "Non-toxic"}
{"Smiles Str": "CC(C)C[C@@H]1NC(=O)[C@H](CCCN)NC(=O)[C@H](CCCCN)NC(=O)[C@@H](Cc2ccc(O)cc2)NC(=O)[C@@H]2CCCN2C(=O)[C@@H](Cc2ccccc2)NC(=O)[C@H](CC(C)C)NC(=O)[C@H](CCCN)NC(=O)[C@H](CCCCN)NC(=O)[C@@H](Cc2ccc(O)cc2)NC(=O)[C@@H]2CCCN2C(=O)[C@@H](Cc2ccccc2)NC1=O", "Quantity Measured": "Activity", "Test Value": "Non-toxic"}
{"Smiles Str": "CC(C)C[C@@H]1NC(=O)[C@H](CCCN)NC(=O)[C@H](C(C)C)NC(=O)[C@@H](Cc2ccc(O)cc2)NC(=O)[C@@H]2CCCN2C(=O)[C@@H](C)NC(=O)[C@H](CC(C)C)NC(=O)[C@H](CCCN)NC(=O)[C@H](C(C)C)NC(=O)[C@@H](Cc2ccc(O)cc2)NC(=O)[C@@H]2CCCN2C(=O)[C@@H](C)NC1=O", "Quantity Measured": "Activity", "Test Value": "Non-toxic"}
